- Assay Method Text: BET inhibitor-based combinations targeting novel dependencies in MECOM-rearranged (r) AML: AML-191 cell line (AID 2202236; also: nearly all actives have a fitted effect of over 35% in size)
- Condition Details: AML-191 viability, CellTiter-Glo luminescence, 48 h; series mostly up to 46 µM
Records with an inconclusive call do not appear. Active and inactive are the calls of the source. Calls follow the shape of the dose curve; as a rule, active = well fitted inhibition curve with a large enough effect; inconclusive = small, poorly fitted or top-dose-only effect; inactive = flat fitted curve, though single readings scatter.
Use one of these outcomes when replying: True for active, False for inactive

## Task Field: outcome | Entry: `O=C(NCCS(=O)(=O)c1ccc(C(F)(F)F)cn1)c1ccc(Cl)cc1`
## Result False

## Task Field: outcome | Entry: `O=C(NC[C@H](O)CN1CCc2ccccc2C1)c1ccnc(NC2CCC2)c1`
## Result False

## Task Field: outcome | Entry: `COc1ncc(-c2ccc3c(Nc4cc(Oc5cc(F)cc(F)c5)cc(C(=O)O)c4)c(S(=O)(=O)NC4CC4)cnc3c2)c(OC)n1`
## Result False

## Task Field: outcome | Entry: `CCN(CC)CCOc1ccc(Nc2ncc3cc(-c4c(Cl)cccc4Cl)c(=O)n(C)c3n2)cc1`
## Result True

## Task Field: outcome | Entry: `O=c1[nH]c(-c2ccc(C(F)(F)F)cc2)nc2c1CSCC2`
## Result False

## Task Field: outcome | Entry: `CN(C)CCOC(c1ccccc1)c1ccccc1`
## Result False

Now let's try a different one.
## Task Field: outcome | Entry: `Cc1[nH]c(/C=C2\C(=O)Nc3ccc(F)cc32)c(C)c1C(=O)NCCN1CCCC1`
## Result True
